Taken from ChEMBL document CHEMBL4619816.

- method_notes: Clearance in Beagle dog hepatocytes assessed as per gram tissue at 0.5 uM by LC-MS/MS analysis
- Format: ADME, cell-based, Canis lupus familiaris, Hepatocyte

{"chemical_structure": "CNC(=O)c1cc(C(=O)N[C@@H]2[C@@H]3COC[C@@H]32)cc2c1O[C@H](CF)[C@H]2c1ccccc1", "CLH": "< 0.65 mL/min/g"}

----------
- method_notes: Solubility of compound by CLND method
- Assay type: physicochemical

{"chemical_structure": "CNC(=O)c1cc(C(=O)NC2CC2)cc2c1O[C@H](CO)[C@H]2c1ccccc1", "solubility kinetic": "> 177 µg/mL"}
{"chemical_structure": "CNC(=O)c1cc(C(=O)N[C@@H]2C[C@H]2CO)cc2c1O[C@H](CF)[C@H]2c1ccccc1", "solubility kinetic": "114 µg/mL"}
{"chemical_structure": "CNC(=O)c1cc(C(=O)NC2CC2)cc2c1O[C@H](C)[C@H]2c1ccccc1", "solubility kinetic": "137 µg/mL"}

----------
- Test system: PBMC
- method_notes: Inhibition of LPS-induced MCP1 production in human PBMC
- Type: functional, cell-based
pIC50: −log10 of the molar value.

{"chemical_structure": "CNC(=O)c1cc(C(=O)NC2CC2)cc2c1O[C@H](C)[C@H]2c1ccccc1", "pIC50": 8.20}

----------
- method_notes: Clearance in Beagle dog at 1 mg/kg, iv
- Type: ADME, organism-based, Canis lupus familiaris
- assay_setup: in vivo

{"chemical_structure": "CNC(=O)c1cc(C(=O)N[C@@H]2[C@@H]3COC[C@@H]32)cc2c1O[C@H](CF)[C@H]2c1ccccc1", "unit_text": "mL/min/kg", "clearance": 3}

----------
- Test system: Bromodomain-containing protein 4 (Homo sapiens), O60885 [UNDEFINED MUTATION]
- method_notes: Selectivity index, ratio of IC50 for displacement of Alexa Fluor 647 labelled ligand from His6-tagged BRD4 BD1 (1 to 477 residues)/BD2 Y390A mutant (unknown origin) to IC50 for displacement of Alexa Fluor 647 labelled ligand from His6-tagged BRD4 BD2 (1 to 477 residues)/BD1 Y97A mutant (unknown origin)
As shown below, each of these compounds has a reported Ratio IC50 value.
quantity_kind: Ratio IC50

{"compound": "CNC(=O)c1cc(C(=O)NCCO)cc2c1O[C@H](C)[C@H]2c1ccccc1", "experimental_target": "Bromodomain-containing protein 4 (Homo sapiens), O60885 [UNDEFINED MUTATION]", "quantity_kind": "Ratio IC50", "limit_qualifier": ">", "measured": 320}
{"compound": "CNC(=O)c1cc(C(=O)NC2CC2)cc2c1O[C@H](C)[C@H]2c1ccccc1", "experimental_target": "Bromodomain-containing protein 4 (Homo sapiens), O60885 [UNDEFINED MUTATION]", "quantity_kind": "Ratio IC50", "limit_qualifier": "=", "measured": 1600}
{"compound": "CNC(=O)c1cccc2c1O[C@H](C)[C@H]2c1ccccc1 (single isomer, unassigned)", "experimental_target": "Bromodomain-containing protein 4 (Homo sapiens), O60885 [UNDEFINED MUTATION]", "quantity_kind": "Ratio IC50", "limit_qualifier": "=", "measured": 25}
{"compound": "CNC(=O)c1cccc2c1O[C@@H](C)[C@H]2c1ccccc1", "experimental_target": "Bromodomain-containing protein 4 (Homo sapiens), O60885 [UNDEFINED MUTATION]", "quantity_kind": "Ratio IC50", "limit_qualifier": "=", "measured": 10}
{"compound": "CNC(=O)c1cc(C(=O)NCC[C@@H]2CNCCO2)cc2c1O[C@H](CF)[C@H]2c1ccccc1", "experimental_target": "Bromodomain-containing protein 4 (Homo sapiens), O60885 [UNDEFINED MUTATION]", "quantity_kind": "Ratio IC50", "limit_qualifier": "=", "measured": 1200}
{"compound": "CNC(=O)c1cc(C(=O)NCCOC)cc2c1O[C@H](C)[C@H]2c1ccccc1", "experimental_target": "Bromodomain-containing protein 4 (Homo sapiens), O60885 [UNDEFINED MUTATION]", "quantity_kind": "Ratio IC50", "limit_qualifier": "=", "measured": 200}
{"compound": "CNC(=O)c1cc(C(=O)N[C@@H]2C[C@H]2CO)cc2c1O[C@H](CF)[C@H]2c1ccccc1", "experimental_target": "Bromodomain-containing protein 4 (Homo sapiens), O60885 [UNDEFINED MUTATION]", "quantity_kind": "Ratio IC50", "limit_qualifier": "=", "measured": 800}
{"compound": "CCNC(=O)c1cc(C(=O)NC)c2c(c1)[C@H](c1ccccc1)[C@@H](C)O2", "experimental_target": "Bromodomain-containing protein 4 (Homo sapiens), O60885 [UNDEFINED MUTATION]", "quantity_kind": "Ratio IC50", "limit_qualifier": "=", "measured": 1000}
{"compound": "CNC(=O)c1cc(C(=O)NC)c2c(c1)[C@H](c1ccccc1)[C@@H](C)O2", "experimental_target": "Bromodomain-containing protein 4 (Homo sapiens), O60885 [UNDEFINED MUTATION]", "quantity_kind": "Ratio IC50", "limit_qualifier": "=", "measured": 400}
{"compound": "CNC(=O)c1cc(C(=O)NC2CCOC2)cc2c1O[C@H](CF)[C@H]2c1ccccc1 (stereo partly drawn)", "experimental_target": "Bromodomain-containing protein 4 (Homo sapiens), O60885 [UNDEFINED MUTATION]", "quantity_kind": "Ratio IC50", "limit_qualifier": ">", "measured": 300}
{"compound": "CNC(=O)c1cccc2c1O[C@@H](c1ccccc1)[C@@H]2C", "experimental_target": "Bromodomain-containing protein 4 (Homo sapiens), O60885 [UNDEFINED MUTATION]", "quantity_kind": "Ratio IC50", "limit_qualifier": "=", "measured": 5}
{"compound": "CNC(=O)c1cc(C(N)=O)cc2c1O[C@H](C)[C@H]2c1ccccc1", "experimental_target": "Bromodomain-containing protein 4 (Homo sapiens), O60885 [UNDEFINED MUTATION]", "quantity_kind": "Ratio IC50", "limit_qualifier": "=", "measured": 160}
{"compound": "CNC(=O)c1cc(C(=O)N[C@H]2C[C@H](O)C2)cc2c1O[C@H](CF)[C@H]2c1ccccc1", "experimental_target": "Bromodomain-containing protein 4 (Homo sapiens), O60885 [UNDEFINED MUTATION]", "quantity_kind": "Ratio IC50", "limit_qualifier": "=", "measured": 400}
